Value source: ChEMBL document CHEMBL4043300

experiment: Unbound fraction in human plasma; format: ADME, cell-free
measuredParameter: fraction unbound

- structureSmiles: "N#CC1(NC(=O)[C@H](Cc2ccc(OC(F)(F)F)c(Cl)c2)NC(=O)c2cnn(-c3ccc(F)nc3)n2)CC1"
  fraction unbound: 0.0148
- structureSmiles: "CC(C)n1ncc(C(=O)N[C@@H](Cc2ccc(OC(F)(F)F)c(Cl)c2)C(=O)NC2(C#N)CC2)n1"
  fraction unbound: 0.0826
- structureSmiles: "N#CC1(NC(=O)[C@H](Cc2ccc(OC(F)(F)F)c(Cl)c2)NC(=O)c2cnn(-c3cccnc3)n2)CC1"
  fraction unbound: 0.0395

Here is another compound to look at.
Query fraction unbound for `Cn1ncc(C(=O)N[C@@H](Cc2ccc(OC(F)(F)F)c(Cl)c2)C(=O)NC2(C#N)CC2)n1`
0.226
